Molecular target: T1, Cyk3, Q07533
T1 sequence (Q07533 1-83, looked up): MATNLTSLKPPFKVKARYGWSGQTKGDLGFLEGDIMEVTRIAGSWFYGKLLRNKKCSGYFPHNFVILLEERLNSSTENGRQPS
Assay: SPOT array
Conditions: median of control spots 1451
RESULT_TYPE: SPOT intensity
In your answer, state the number alone without any accompanying words.

// solved cases for SPOT intensity follow
In: For QTMRQAPKRPDADVA , what is its reported SPOT intensity?
Out: 0

In: // query: APKREAPKPPANTSP
Out: 0

In: Now the same for QTREPNEPPPPSPAM
Out: 1

In: Try this binder too: AAAPKHAPPPVPNET
Out: 0

In: And what about the binder MARRRLPDRPPNGIG ?
Out: 0

More entries:
In: Consider the binder shown here: NQARKPFLLPATELS What is its recorded SPOT intensity?
Out: 3

In: # repeat for YVRRRPRVRLEPLLS
Out: 4
